- SYSTEM NAME: T1, Human prostate specific antigen (hPSA) peptide 53–59: RHSLFHP (human)
- T1 construct: human prostate specific antigen (hPSA), residues 53-59 (R53-P59); 77-83 of the precursor P07288; In the magnetic particle enzyme immunoassay the peptide was coupled by EDC to SPHERO carboxyl magnetic particles; also called sense peptide; source: synthetic peptide, bought: GenScript (>97% purity)
- T1 peptide: RHSLFHP
- ASSAY TEXT: magnetic particle enzyme immunoassay (MPEIA); RHSLFHP coupled by EDC to SPHERO carboxyl magnetic particles; biotinylated peptide in two-fold dilutions 1.09–70 µM, room temperature, 30 min, PBS-Tween 20 washes; detected with streptavidin-peroxidase polymer and OPD, absorbance at 450 nm
- STUDY CONDITIONS: both partners purified
Where no end group is shown, it is not given here. The star is where a group is joined. Biotin = O=C1N[C@H]2[C@H](CS[C@H]2CCCCC(=O)*)N1
MEASURED ENDPOINT: Kd (µM)
Give bare numbers, in µM.

Report measured Kd; entry is Biotin-AVRDKVG (not fully specified, Some sentences print AKRDKVG; also called biotinylated antisense peptide AVRDKVG; antisense paratope Biotin-AVRDKVG; source: synthetic peptide, bought: GenScript (>97% purity)) [N-terminal biotin antisense peptide Biotin-AVRDKVG]
24.6
